Can you tell me melting point for the items I'm about to list?

Some molecules with known melting point results, for comparison:
MOLECULE	ASSAY_RESULT
NS(=O)(=O)c1cc(C(=O)NCCOC(=O)[C@@H]2CCCN2[15N]=O)c(NCc2ccco2)cc1Cl	51 to 61 °C
NS(=O)(=O)c1cc(C(=O)OCC(=O)NC[C@H](CO[N+](=O)[O-])O[N+](=O)[O-])c(NCc2ccco2)cc1Cl [Example 12]	143 to 153 °C (dec.)
NS(=O)(=O)c1cc(C(=O)OCC(=O)N2CCC(CO[N+](=O)[O-])CC2)c(NCc2ccco2)cc1Cl	115 to 117 °C
NS(=O)(=O)c1cc(C(=O)OCC(=O)NCCO[N+](=O)[O-])c(NCc2ccco2)cc1Cl	135 °C
NS(=O)(=O)c1cc(C(=O)OCC(=O)N2CCC(CCO[N+](=O)[O-])CC2)c(NCc2ccco2)cc1Cl	170 °C

I have 5 molecules here; please give me melting point for each one.
1. CN(CCO[N+](=O)[O-])C(=O)COC(=O)c1cc(S(N)(=O)=O)c(Cl)cc1NCc1ccco1
2. NS(=O)(=O)c1cc(C(=O)OCC(=O)N[C@@H](CCO[N+](=O)[O-])CO[N+](=O)[O-])c(NCc2ccco2)cc1Cl
3. NS(=O)(=O)c1cc(C(=O)OCC(=O)N2CCC[C@@H]2CO[N+](=O)[O-])c(NCc2ccco2)cc1Cl
4. C[C@@H](CNC(=O)COC(=O)c1cc(S(N)(=O)=O)c(Cl)cc1NCc1ccco1)O[N+](=O)[O-]
5. CCN(CCO[N+](=O)[O-])C(=O)COC(=O)c1cc(S(N)(=O)=O)c(Cl)cc1NCc1ccco1

Ans:
70 to 72 °C
115 to 118 °C
64 to 66 °C
125 to 138 °C (dec.)
60 to 62 °C

Q: Give the value of melting point reported for the following: `NS(=O)(=O)c1cc(C(=O)OC[C@H]2CCCN2N=O)c(NCc2ccco2)cc1Cl`
Ans: 79 to 81 °C
